The measured values listed here are drawn from PubChem BioAssay (NCATS).

- Test system: CRL-7250
- measurement-protocol: Cytotoxic Profiling of Annotated Libraries Using Quantitative High-Throughput Screening (AID 1296008); note: nearly all actives have a fitted effect of over 60% in size; for max response: % is set by controls: 0 for no effect and ±100 for the full control effect
- condition-set: Five cell lines viability, CellTiter-Glo ATP luminescence, 48-72 h; stronger effect = lower value
Inconclusive results are not listed.
Below, each entry is listed alongside its reported max response.
Return type: number; implicit unit %.

Example results:
CC1(C)CC=C(C#Cc2ccccc2)c2cc(/C=C/c3ccc(C(=O)O)cc3)ccc21    -4.79
COC(=O)C1=COC(OC2OC(CO)C(O)C(O)C2O)C2C(C)C(OC(C)=O)C(OC(=O)c3ccccc3)C12 (stereo unspecified)    -19.7

Need max response, item CC1(C)CC[C@]2(C(=O)O[C@@H]3O[C@H](CO)[C@@H](O)[C@H](O)[C@H]3O)CC[C@]3(C)C(=CCC4[C@@]5(C)CC[C@H](O[C@@H]6O[C@H](C(=O)O)[C@@H](O[C@@H]7O[C@H](CO)[C@@H](O)[C@H](O)[C@H]7O)[C@H](O)[C@H]6O)C(C)(C)C5CC[C@]43C)C2C1 (stereo partly specified)
-9.08

Need max response, item CC(=O)OCC1OC(OC2COC(OC3COC(OC4C(OC5C(CO)OC(OC6CCC7(C)C(CCC8(C)C7CC=C7C9CC(C)(C)CCC9(C(=O)OC9OC(CO)C(O)C(O)C9OC9OCC(OC%10OCC(O)(CO)C%10O)C(O)C9O)C(O)CC78C)C6(C)C)C(O)C5O)OCC(O)C4O)C(O)C3O)C(O)C2O)C(OC(=O)/C=C/c2ccccc2)C(O)C1OC(C)=O (stereo unspecified)
2.77

Need max response, item CC(=O)NCC1CN(c2ccc(-c3ccc(CNCc4cn[nH]n4)cc3)c(F)c2)C(=O)O1 (stereo unspecified)
0.231

Need max response, item C=C(C)C1CCC2(C(=O)OC3OC(COC4OC(CO)C(O)C(O)C4O)C(OC4OC(C)C(O)C(O)C4O)C(O)C3O)CCC3(C(=O)O)C(CCC4C5(C)CCC(=O)C(C)(C)C5CCC43C)C12 (stereo unspecified)
-1.47

###

- Tested on: CRL-7250
- measurement-protocol: Cytotoxic Profiling of Annotated Libraries Using Quantitative High-Throughput Screening (AID 1296008); note: nearly all actives have a fitted effect of over 60% in size
- condition-set: Five cell lines viability, CellTiter-Glo ATP luminescence, 48-72 h
Inconclusive results are not listed. The source made the active and inactive calls. Calls come from the whole dose curve; as a rule, active = well fitted inhibition curve with a large enough effect; inconclusive = small, poorly fitted or top-dose-only effect; inactive = flat fitted curve, though single readings scatter.
recorded-endpoint: outcome

COC(=O)[C@@H](NC(=O)[C@H](CC(C)C)NC(=O)N(Cc1ccccc1)C[C@@H](O)[C@H](Cc1ccccc1)NC(=O)OC(C)(C)C)C(C)C    inactive
C[C@@H]1O[C@@H](O[C@H]2[C@H](O)[C@@H](O)[C@H](OC(=O)[C@]34CCC(C)(C)C[C@H]3C3=CCC5[C@@]6(C)CC[C@H](O[C@@H]7O[C@H](C(=O)O)[C@@H](O)[C@H](O)[C@H]7O)C(C)(C)C6CC[C@@]5(C)[C@]3(C)CC4)O[C@@H]2CO)[C@H](O)[C@H](O)[C@H]1O (some centres not stated)    inactive

###

- Tested on: HACAT
- measurement-protocol: qHTS assay to identify novel small-molecules to repurpose for Merkel cell carcinoma treatment (AID 1296009); note: nearly all actives have a fitted effect of over 60% in size
- condition-set: MCC and control cell lines, CellTiter-Glo viability, 72 h; at 44.8 µM (top of the series) unless noted
Results filed as inconclusive are left out. Activity calls are given as the source filed them. Calls follow the shape of the dose curve; as a rule, active = well fitted inhibition curve with a large enough effect; inconclusive = small, poorly fitted or top-dose-only effect; inactive = flat fitted curve, though single readings scatter. *1 amine or outer side, *2 acyl side, *3 side chain or, on linkers, in order; H or OH if unused. Where a SMILES comes first, the peptide text is derived from it. Bridges are numbered along the chain shown (N, C = ends). [ ]: non-standard residue; d: D form. The star is where a group is joined. ξ: configuration not given here. ξhTyr(3S-OH,4S-OH,3'-OSO3H) = NC(C(=O)O)[C@H](O)[C@@H](O)c1ccc(O)c(OS(=O)(=O)O)c1; Orn(4R-OH,5R-OH) = O=C([C@H](C[C@@H](O)[C@@H](O)N[*:3])N[*:1])[*:2]; X2 = CCCCCOc1ccc(-c2cc(-c3ccc(C(=O)*)cc3)no2)cc1; X3 = C[C@H]1CN([*:1])C(C(=O)[*:2])[C@H]1O; ξGln(3R-OH) = NC(=O)C[C@@H](O)C(N)C(=O)O; ξPro(4R-OH) = O=C(O)C1C[C@@H](O)CN1; ξThr(3R) = C[C@@H](O)C(N)C(=O)O
recorded-endpoint: outcome

Example results:
CC1(C)C2CC[C@@]34CC(CC[C@H]3[C@]2(C)CC[C@@H]1O[C@@H]1O[C@H](CO)[C@@H](O)[C@H](O)[C@H]1O)[C@](C)(O)C4 (stereo partly drawn)    inactive [at 17.4 µM]
CC1CCC2C(C)(C)C(O)C(O)CC2(C)C12Cc1c(O)cc(CO)c(C=O)c1O2 (stereo not drawn)    inactive [at 17.4 µM]
COC(=O)C1(C)CCCC2(C)c3ccc(C(C)C)cc3C(O)C(O)C12 (stereo not drawn)    inactive
CCCCCOc1ccc(-c2cc(-c3ccc(C(=O)N[C@H]4C[C@@H](O)[C@@H](O)NC(=O)C5[C@@H](O)[C@@H](C)CN5C(=O)C([C@H](O)CC(N)=O)NC(=O)C([C@H](O)[C@@H](O)c5ccc(O)c(OS(=O)(=O)O)c5)NC(=O)C5C[C@@H](O)CN5C(=O)C([C@@H](C)O)NC4=O)cc3)no2)cc1 (stereo partly drawn) (X2-[Orn(4R-OH,5R-OH)][ξThr(3R)][ξPro(4R-OH)][ξhTyr(3S-OH,4S-OH,3'-OSO3H)][ξGln(3R-OH)][X3]; lactam 1-C)    inactive [at 17.4 µM]
CC1CC2OCC3(O)CCC(O)C(C14CC(c1ccoc1)OC4=O)C23CO (stereo not drawn)    inactive

Need outcome, item "N#Cc1cccc(-c2c[nH]c3ncnc(N4CCOCC4)c23)c1"
inactive

Need outcome, item "Cc1c(NC(=O)N2CCOCC2)ccc2c1c1ccccc1n2C(C)C"
inactive

Need outcome, item C=C(C)[C@@H]1CC[C@]2(C(=O)O)CC[C@]3(C)C(CCC4[C@]5(C)C(CC[C@]43C)C(C)(C)[C@@H](O)[C@@H]5C(=O)O)C12 (stereo partly drawn)
inactive [at 17.4 µM]

Need outcome, item "COc1c(O)cc2c(c1O)C(=O)O[C@H](C)[C@H]2O"
inactive

Need outcome, item "CCc1nnc(NS(=O)(=O)c2ccc(NC(=S)NC(=O)/C=C/c3ccc(F)cc3)cc2)s1"
inactive

Need outcome, item "COc1cc(/C=C/CO[C@@H]2O[C@H](CO)[C@@H](O)[C@H](O)[C@H]2O)cc(OC)c1O[C@@H]1O[C@H](CO)[C@@H](O)[C@H](O)[C@H]1O"
inactive [at 17.4 µM]

Need outcome, item CCCC1=CC2=C(CO1)C(=O)C(C)(O)C(OC(=O)c1c(C)cc(OC)cc1O)C2 (stereo not drawn)
inactive [at 17.4 µM]
